- System: RXF 393
- protocolSummary: NCI tumour cell line growth inhibition, 48 h
Activity calls are given as the source filed them. No stated cut-off is given here; in the data, active = GI50 up to about 1.1 µM and inactive = higher.
Valid outcomes are listed here; reply with one: active, inactive

Check out these entries, answers already filled in.
{"columns": ["molecule", "testSystem", "group"],
 "data": [
  ["O=C(NNc1nc(-c2ccccc2)cs1)C(F)(F)F", "RXF 393", "inactive"],
  ["CCCC(=O)Nc1cc(/C=C/C(=O)N2CC(CCl)c3c2cc(OCc2ccccc2)c2[nH]cc(C)c32)n(C)c1 (centres undefined)", "RXF 393", "active"]
]}

Outcome? CCCCC(C)C1CCC2(C)C=CC(=O)C(C)=C2C1O (centres undefined)
inactive

How was Nc1ncnc2c1ncn2[C@@H]1O[C@H](COP(=O)(O)O)[C@@H](O)[C@@H]1O classified in this test?
inactive

----------
- System: HL-60
- protocolSummary: NCI tumour cell line growth inhibition, 48 h
The source made the active and inactive calls. Rule as the data show it: active = GI50 up to about 1.1 µM and inactive = higher.
Select the correct class. Options are active, inactive and nothing else.

# lookup: test call for N#Cc1cc2c(cc1C#N)/C(=N\c1cccc(N)n1)N/C2=N\c1cccc(N)n1
inactive

Test call for this molecule, please: c1ccc(C[n+]2ccc3c(c2)CCCC3)cc1
inactive

Lab log entry: CCN(CC)C1=Nc2ccccc2-n2ccnc2C1 — outcome as called in the assay?
inactive

Could you please tell me the result logged for COc1ccc2c(c1)/C(=C/CCN(C)C)c1ccccc1S2 in this assay?
inactive

Would you mind telling me which call this test gave COC(=O)/C=C/C1C(C(=O)OC)C2(C(=O)OC)CCC1(C(=O)OC)N2 (configuration not stated) ?
inactive

Recorded test call requested for N#Cc1c(O)c(/N=N/c2ccccc2F)c(=O)n2c1[nH]c1ccccc12
inactive

# fetch the recorded call for Nc1nc(N)c2c(Cl)c(CNc3ccc(Cl)c(Cl)c3)ccc2n1 here
active

----------
- Test system: Malme-3M
- protocolSummary: NCI tumour cell line growth inhibition, 48 h
Calls of active or inactive are those of the source. Cut-off read from the data, not from the text of the source: active = GI50 up to about 1.1 µM and inactive = higher.
Outcome field: choose from yes (1) for active, no (0) for inactive

Example entries begin here.
{"columns": ["compound", "testSystem", "group"],
 "data": [
  ["CC1(C)CCC2(C(=O)O)C(O)CC3(C)C(=CCC4C5(C)CCC(OC6OCC(O)C(O)C6OC6OCC(O)C(O)C6OC6OCC(O)C(OC7OC(CO)C(O)C(O)C7O)C6O)C(C)(C)C5CCC43C)C2C1 (stereo not drawn)", "Malme-3M", "no (0)"],
  ["CNC1C(O)C(OC2C(N)CC(N)C(OC3OC(CN)=CCC3N)C2O)OCC1(C)O (stereo not drawn)", "Malme-3M", "no (0)"],
  ["C1CCCN(NC2=NCCO2)CC1", "Malme-3M", "no (0)"],
  ["COc1ccc2nc(NC(=O)C(=O)C(C#N)c3ccc(Cl)c(Cl)c3)sc2c1 (stereo not drawn)", "Malme-3M", "no (0)"],
  ["CC(C)=CCC/C(C)=C/CC/C(C)=C/C1CCC(=O)C1(C)C (stereo not drawn)", "Malme-3M", "no (0)"],
  ["Cc1ccc(-c2c(C#N)c(-c3ccc([N+](=O)[O-])cc3)c(C#N)c(=O)n2NS(=O)(=O)c2ccccc2)cc1", "Malme-3M", "no (0)"]
]}

Please examine the following record next.
Please state the recorded outcome for this compound: O=c1c2ccccc2n2c(-c3ccc(O)cc3)nnc2n1-c1ccccc1
no (0)

----------
- System: OVCAR-5
- protocolSummary: NCI tumour cell line growth inhibition, 48 h
The source made the active and inactive calls. No stated cut-off is given here; in the data, active = GI50 up to about 1.1 µM and inactive = higher.
Your answer must be one of the following: active, inactive

{"columns": ["molecule", "group"],
 "data": [
  ["CCN1CCC(O)(/C=C/c2ccc(Cl)c(Cl)c2)C(C(=O)/C=C/c2ccc(Cl)c(Cl)c2)C1 (stereo not drawn)", "inactive"]
]}

Tell me the assay call for C1CCCN(NC2=NCCO2)CC1 please.
inactive

Please let me know the test result on file for CC1(C)CCc2cc3c(cc2O1)OC(C)(C)CC3=O .
inactive

What classification did CCC1CN2CCc3cc(OC)c(OC)cc3C2CC1CC1c2cc(OC)c(OC)cc2CCN1C(=O)CNC(=O)OC(C)(C)C (stereo not drawn) end up with in this test?
inactive

What did this assay record as the result for COC(=O)c1ccccc1/C=C1\Cc2ccc3c(c2C1=O)CCC3 ?
inactive

Given CCOC(=O)C(Cc1cc(OC)c(CC(C(=O)OCC)C(=O)OCC)cc1OC)C(=O)OCC , state the outcome it received in this test.
inactive

Test call for this molecule, please: CN1COc2c(n(C)c(=O)[nH]c2=O)C1
inactive

Which outcome was assigned to CC1C(O)C2(Oc3cc4c(c5c3[C@@H](CC5O)[C@H]2C)CCC2Cc3nc5c(nc3C[C@@]42C)CC2CCC3C4=C[C@H]6O[C@@]7(O[C@@](C)(CO)C[C@@H]7O)C(C)[C@@]6(O)[C@]4(C)[C@@H](O)CC3[C@]2(C)C5)OC1(C)C (stereo partly drawn) in this test?
active

Recorded test outcome, item CCOC(CNc1nn2c(C)nnc2s1)OCC
inactive

Recorded call for Cn1c2ccccc2c2c3c(c4c5ccccc5n(C)c4c21)C(=O)N(Cc1ccccc1)C3=O ?
inactive

Test call for this molecule, please: O=C1CCC(=O)N1n1c(Cc2ccccc2)n[nH]c1=O
inactive

Outcome? Nc1nc(Nc2ccc(Cl)cc2)sc1C(=O)c1c[nH]c2ccccc12
inactive

----------
# reported GI50; entries follow
- Tested on: A549
- protocolSummary: NCI tumour cell line growth inhibition, 48 h
Activity calls are given as the source filed them. No stated cut-off is given here; in the data, active = GI50 up to about 1.1 µM and inactive = higher.

Some compounds with recorded GI50:
{"columns": ["compound", "endpointLabel", "result"],
 "data": [
  ["C=C=C(CC1CCCCC1=O)S(=O)(=O)c1ccccc1 (centres undefined)", "GI50", "> 10 µM (inactive)"],
  ["COc1ccc2c3c([nH]c2c1CC=C(C)C)C(=O)C=C(C)C3=O", "GI50", "> 25 µM (inactive)"],
  ["CN(C)S(=O)(=O)c1ccc2c(c1)/C(=C1/Nc3ccccc3C1=O)C(=O)N2", "GI50", "> 100 µM (inactive)"]
]}

Given the entry Cc1c(NC(=O)CSC(=S)N(C)C)c(=O)n(-c2ccccc2)n1C , report its measured GI50.
> 100 µM (inactive)

----------
Below: a set of entries, each annotated with reported GI50.
- Test system: LXFL 529
- protocolSummary: NCI tumour cell line growth inhibition, 48 h
Calls of active or inactive are those of the source. Rule as the data show it: active = GI50 up to about 1.1 µM and inactive = higher.

The following compounds have reported results that may help.
{"columns": ["compound", "testSystem", "GI50"],
 "data": [
  ["Cc1cc(C(C)C)cc(=O)c(O)c1", "LXFL 529", "> 100 µM (inactive)"],
  ["Cc1ccc(NC(=O)CCC(=O)C2Cc3ccccc3C2=O)cc1C (stereo not given)", "LXFL 529", "> 100 µM (inactive)"],
  ["O=C(c1ccc(O)cc1)C1c2c3c(cc(O)c2C(c2ccc(O)cc2)C1c1cc(O)cc(O)c1)OC(c1ccc(O)cc1)C3c1cc2c(cc1O)OC(c1ccc(O)cc1)C2c1cc(O)cc(O)c1 (stereo not given)", "LXFL 529", "> 12.5 µM (inactive)"],
  ["CC1C[C@]2(C[C@@H](C)C(=O)O2)O[C@@H]2CC3(C)[C@@H]4CCC5C(C)(C)OC(=O)C[C@H]6OO[C@]4(CC[C@]3(C)C12)CC56O (stereo not given in full)", "LXFL 529", "> 100 µM (inactive)"]
]}

// next entry
Fill in the blank: the reported GI50 of COc1ccc2nc(NC(=O)C(=O)C(C#N)c3ccc(Cl)c(Cl)c3)sc2c1 (stereo not given) is ____.
> 100 µM (inactive)

----------
- System: ACHN
- protocolSummary: NCI tumour cell line growth inhibition, 48 h
Activity calls are given as the source filed them. No stated cut-off is given here; in the data, active = GI50 up to about 1.1 µM and inactive = higher.
The reply should be one of these categories: active, inactive

Worked set:
{"columns": ["compound", "group"],
 "data": [
  ["COC(=O)c1c(-c2ccccc2)c2sc3ccccc3n2c1N", "inactive"],
  ["O=C1c2cccnc2C(=O)C2C3C=CC(C3)C12 (centres undefined)", "inactive"],
  ["C[C@@H]1O[C@@H](O[C@H]2CC[C@]3(C=O)[C@H]4CC[C@]5(C)[C@@H](c6ccc(=O)oc6)CC[C@]5(O)[C@@H]4CC[C@]3(O)C2)[C@H](O)[C@H](O)[C@H]1O[C@@H]1O[C@H](CO)[C@@H](O)[C@H](O)[C@H]1O", "active"],
  ["O=[N+]([O-])c1ccc(N/N=C2\\C=CCCC2)c([N+](=O)[O-])c1", "inactive"],
  ["N[C@@H]1CCN(c2c(F)cc3c(=O)c(C(=O)O)cn4c3c2Oc2c-4ccc3c2ccc2ccccc23)C1", "active"]
]}

I'd appreciate the recorded outcome for Nc1nc(SCCC/C=C/I)nc2c1ncn2C1OC(CO)C(O)C1O (centres undefined) from this test.
inactive

Could you please tell me the result logged for CCOC(=O)C1=C(OC(OCC)C([Se]c2ccccc2)C(C)C)CCC1 (centres undefined) in this assay?
inactive

Field: outcome | Entry: Cn1c2ccccc2c2c3c(c4c5ccccc5n(C)c4c21)C(=O)N(Cc1ccccc1)C3=O
inactive

Lab log entry: CC(=O)n1nc(-c2ccccc2)n(/N=C/c2ccc([N+](=O)[O-])o2)c1=O — outcome as called in the assay?
inactive

Kindly provide the recorded test outcome for the following compound: CCCCCC(=O)OC[n+]1cccc(-c2c(COC(=O)NC(C)C)c(COC(=O)NC(C)C)c3n2CCC3)c1
inactive
